Biological target: Calpain-1 catalytic subunit (Homo sapiens)
Sequence (P07384 whole entry): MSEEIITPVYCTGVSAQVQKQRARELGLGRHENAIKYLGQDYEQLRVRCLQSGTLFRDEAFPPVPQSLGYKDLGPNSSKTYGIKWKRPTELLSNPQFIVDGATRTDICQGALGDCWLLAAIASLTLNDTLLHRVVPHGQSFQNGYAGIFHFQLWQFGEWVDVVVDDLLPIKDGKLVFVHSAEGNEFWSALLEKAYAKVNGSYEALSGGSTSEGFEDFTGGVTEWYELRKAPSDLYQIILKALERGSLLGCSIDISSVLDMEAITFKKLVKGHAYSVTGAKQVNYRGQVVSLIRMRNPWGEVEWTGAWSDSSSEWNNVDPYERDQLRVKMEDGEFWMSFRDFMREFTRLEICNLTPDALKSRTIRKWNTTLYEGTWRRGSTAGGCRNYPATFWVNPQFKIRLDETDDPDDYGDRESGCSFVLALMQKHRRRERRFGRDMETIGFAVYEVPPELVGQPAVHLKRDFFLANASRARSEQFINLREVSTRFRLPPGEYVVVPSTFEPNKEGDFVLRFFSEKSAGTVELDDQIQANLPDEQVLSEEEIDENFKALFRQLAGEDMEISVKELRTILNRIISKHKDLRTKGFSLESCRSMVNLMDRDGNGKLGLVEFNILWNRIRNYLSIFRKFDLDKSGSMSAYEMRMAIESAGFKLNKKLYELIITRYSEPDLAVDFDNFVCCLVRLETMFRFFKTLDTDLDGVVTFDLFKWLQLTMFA
Assay: Inhibition of calpain-1 (unknown origin) using Suc-LY-AMC as substrate by fluorescence assay
Peptide text beside a SMILES is read from it. * marks the point of attachment. X10 = CC(C)C[C@H](NC(=O)[C@@H]1O[C@H]1C(=O)*)C(=O)N[C@@H](CO)C(=O)N[C@H](C(N)=O)[C@@H](C)O
Reported property: pKi
Recall that pKi is obtained by taking minus log10 of the concentration measured in molar.

Qu. Write down measured pKi (Calpain-1 catalytic subunit (Homo sapiens)) for this compound. CC(C)C[C@H](NC(=O)[C@@H]1O[C@H]1C(=O)N[C@@H](CO)C(=O)N1CCC[C@H]1C(=O)N1CCC[C@H]1C(=O)N1CCC[C@H]1C(=O)N[C@@H](CO)C(N)=O)C(=O)N[C@@H](CO)C(=O)N[C@H](C(N)=O)[C@@H](C)O (X10-SPPPS-NH2)
Ans. 4.51

meta.source: ChEMBL document CHEMBL3286101
